These data points were gathered from PubChem BioAssay AID720488.

# MEASUREMENT NOTES: fluorescence interference in NS3h DNA assay – biochemical, ChemBridge library, Cy5 readout, artefact control for HCV NS3 helicase inhibitor project (AID 720488)
# EXPERIMENTAL PARAMETERS: Cy5-dT15 DNA with NS3h, at 100 µM, actives lie on both sides, signal over control mean, under 1 quenches
The campaign covered roughly 16,000 compounds. About 960 (6%) were called active.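 Rule for the calls: active = compound fluorescence over control fluorescence at most 0.8, a quencher, or at least a set upper limit, an enhancer; inactive = ratio between 0.8 and the set upper limit.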 The full list was thinned out, with actives kept by preference.
Labels: active, inactive

| COMPOUND | DISCRETE LABEL |
| --- | --- |
| COc1ccc(N=Cc2sccc2C)c([N+](=O)[O-])c1 | inactive |
| O=C(CSc1ncc(-c2ccccc2)[nH]1)Nc1ccc(Br)cc1 | inactive |
| CCOc1ccccc1NC(=O)/C=C/c1ccc(Cl)cc1 | active |
| CCOC(=O)CSc1nnc(-c2cccc(Br)c2)o1 | inactive |
| O=C(Nc1c(F)cc(F)cc1Br)c1cc2n(n1)C(C(F)(F)F)CC(c1ccc(Cl)cc1)N2 (centres undefined) | inactive |
| COc1ccc2occ(C(=O)c3ccc(N=C(C)N(C)C)cc3)c2c1 | inactive |
| O=C(NC(NC(=O)C(c1ccccc1)c1ccccc1)c1ccc(F)cc1)C(c1ccccc1)c1ccccc1 | inactive |
| CCOC(=O)c1ccc(NC2C=CS(=O)(=O)C2)cc1 (centres undefined) | inactive |
| O=C(NCCN1CCN(S(=O)(=O)c2ccccc2)CC1)C(=O)Nc1ccc(Br)cc1 | inactive |
